All figures here come from patent US9796659B2.

# Method summary: Membrane permeability in Caco-2 monolayers
# Experimental setup: human, Caco-2, Recovery [%] mean ± s.d., direction b-a
Measure name: recovery at 90 min
Note to self: number, then unit, no commentary.

Kindly indicate its recorded recovery at 90 min. Item: C[C@]12CC[C@H]3[C@@H](CCC4=CC(=O)CC[C@@]43C)[C@@H]1CC[C@@H]2O [Testosterone, testosterone]
94.9%

====

# Method summary: Membrane permeability in Caco-2 monolayers
# Experimental setup: human, Caco-2, Recovery [%] mean ± s.d., direction a-b
Measure name: recovery at 90 min, 250 μM
Note: state the figure and append the unit.

Give the value of recovery at 90 min, 250 μM reported for the following: C[C@]12CC[C@H]3[C@@H](CCC4=CC(=O)CC[C@@]43C)[C@@H]1CC[C@@H]2O [Testosterone, testosterone]
67.3%

====

# Method summary: in vitro
# Experimental setup: human, Caco-2, Efflux ratio (b-a/a-b)
Measure name: efflux ratio at 90 min
Keep the answer to the number alone.

Using known records, supply efflux ratio at 90 min for `CC[C@H]1OC(=O)[C@H](C)[C@@H](O[C@H]2C[C@@](C)(OC)[C@@H](O)[C@H](C)O2)[C@H](C)[C@@H](O[C@@H]2O[C@H](C)C[C@H](N(C)C)[C@H]2O)[C@](C)(O)C[C@@H](C)C(=O)[C@H](C)[C@@H](O)[C@]1(C)O`
55.9
